The reported measurements were obtained from patent US20140242080A1.

TARGET_UNDER_TEST: T1, hu-MCSP(D3 domain)-avi-his (human, UniProt Q6UVK1 1582-2224)
T1 construct: Recombinant D3 domain with avi and his tags; also called human MCSP(D3 domain)-avi-his; Human MCSP D3
T1 sequence: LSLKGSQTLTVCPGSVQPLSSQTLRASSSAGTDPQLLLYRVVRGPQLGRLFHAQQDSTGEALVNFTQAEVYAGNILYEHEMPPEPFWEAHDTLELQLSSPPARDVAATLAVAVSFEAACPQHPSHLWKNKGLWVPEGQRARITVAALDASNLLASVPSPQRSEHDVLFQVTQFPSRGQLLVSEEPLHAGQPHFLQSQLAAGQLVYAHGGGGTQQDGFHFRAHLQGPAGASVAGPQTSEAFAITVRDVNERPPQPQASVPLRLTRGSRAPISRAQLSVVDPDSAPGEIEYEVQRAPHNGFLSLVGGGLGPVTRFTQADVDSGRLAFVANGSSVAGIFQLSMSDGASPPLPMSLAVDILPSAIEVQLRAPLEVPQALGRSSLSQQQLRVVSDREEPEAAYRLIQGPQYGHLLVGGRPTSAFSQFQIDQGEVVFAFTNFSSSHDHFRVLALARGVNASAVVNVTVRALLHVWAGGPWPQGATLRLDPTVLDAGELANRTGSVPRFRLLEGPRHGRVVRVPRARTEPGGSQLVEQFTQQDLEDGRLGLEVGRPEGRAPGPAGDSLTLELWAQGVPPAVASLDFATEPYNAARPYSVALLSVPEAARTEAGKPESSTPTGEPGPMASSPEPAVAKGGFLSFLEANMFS
ASSAY_TEXT: SPR ProteOn XPR36, 25 C; IgG captured via anti-human F(ab')2, MCSP D3 as analyte
OBSERVABLE: Kd (nM)
Write the value in nM as a bare number.

Recorded results for 2 binders are shown here.
1) M4-3(B7)/ML2 IgG (antibody, V domains shown, Human IgG1) VH: QVQLQESGPGLVKPSQTLSLTCTVSGGSITSGYYWNWIRQHPGKGLEWIGYITFDGINNYNPSLKSRVTISRDTSKNQFSLKLSSVTAADTAVYYCADFDYWGQGTLVTVSS VL: DIQMTQSPSSLSASVGDRVTITCRASQGIRNYLNWYQQKPGKAPKLLIYYTSSLHSGVPSRFSGSGSGTDFTLTISSLQPEDFATYYCQQYSKLPWTFGQGTKVEIK: 0.5
2) M4-3/ML2(E10) IgG (antibody, V domains shown, Human IgG1) VH: QVQLQESGPGLVKPSQTLSLTCTVSGGSITSGYYWNWIRQHPGKGLEWIGYITYDGSNNYNPSLKSRVTISRDTSKNQFSLKLSSVTAADTAVYYCADFDYWGQGTLVTVSS VL: DIQMTQSPSSLSASVGDRVTITCRASYGIRGYLNWYQQKPGKAPKLLIYYTSSLHSGVPSRFSGSGSGTDFTLTISSLQPEDFATYHCQQYSKLPWTFGQGTKVEIK: 1

Given the entry M4-3/ML2(C5/G3) IgG (antibody, V domains shown, Human IgG1) VH: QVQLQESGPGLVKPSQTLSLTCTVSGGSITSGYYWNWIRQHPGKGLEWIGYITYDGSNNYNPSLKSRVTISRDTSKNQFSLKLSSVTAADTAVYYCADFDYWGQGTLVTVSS VL: DIQMTQSPSSLSASVGDRVTITCRASRGIREYLNWYQQKPGKAPKLLIYYTGSLHSGVPSRFSGSGSGTDFTLTISSLQPEDFATYYCQQYSALPWTFGQGTKVEIK , report its measured Kd. 0.7
